Where these numbers come from: patent US12486253B2

# target-or-system: BRAF V600E (Homo sapiens, UniProt P15056, V600E)
# Sequence (P15056 whole entry V600E): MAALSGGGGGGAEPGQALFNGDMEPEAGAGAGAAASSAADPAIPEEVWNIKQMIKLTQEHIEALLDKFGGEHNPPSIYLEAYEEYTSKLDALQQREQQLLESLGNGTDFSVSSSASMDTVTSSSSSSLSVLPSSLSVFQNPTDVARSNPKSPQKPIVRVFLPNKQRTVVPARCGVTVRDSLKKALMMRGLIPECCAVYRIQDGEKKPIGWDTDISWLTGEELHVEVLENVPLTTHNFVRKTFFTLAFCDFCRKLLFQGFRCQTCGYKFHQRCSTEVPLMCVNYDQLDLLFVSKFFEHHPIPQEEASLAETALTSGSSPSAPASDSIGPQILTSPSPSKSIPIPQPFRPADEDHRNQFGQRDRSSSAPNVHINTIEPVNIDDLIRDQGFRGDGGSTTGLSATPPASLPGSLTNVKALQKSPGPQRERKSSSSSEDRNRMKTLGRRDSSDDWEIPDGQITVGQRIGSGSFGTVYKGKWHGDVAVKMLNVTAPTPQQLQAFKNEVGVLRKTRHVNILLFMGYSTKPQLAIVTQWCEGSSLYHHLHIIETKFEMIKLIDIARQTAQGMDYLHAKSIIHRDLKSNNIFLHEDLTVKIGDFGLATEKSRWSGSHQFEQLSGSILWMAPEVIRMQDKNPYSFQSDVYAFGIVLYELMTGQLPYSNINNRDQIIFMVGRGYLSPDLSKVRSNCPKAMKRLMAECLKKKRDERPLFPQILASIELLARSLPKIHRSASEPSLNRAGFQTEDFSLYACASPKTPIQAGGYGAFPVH
# test-summary: HiBiT cellular BRAF^V600E degradation assay
# Assay type: cell-based
# recorded-conditions: A375.10 cells, 24 h; residual protein remaining in the cell; read-out: HiBit 24 h Emax
reported-metric: Emax (%)

1. CCN(C)S(=O)(=O)Nc1ccc(F)c(Oc2ccc3ncn([C@H]4CCC5(CCN(C(=O)CN6CCN(c7ccc(NC8CCC(=O)NC8=O)cc7F)CC6)CC5)C4)c(=O)c3c2)c1C#N (stereo partly shown)
2. CCN(C)S(=O)(=O)Nc1ccc(F)c(Oc2ccc3ncn([C@H]4COC5(CCN(C(=O)CN6CCC(c7cc(OC)c(NC8CCC(=O)NC8=O)cc7F)CC6)CC5)C4)c(=O)c3c2)c1C#N (stereo partly shown)
Enquiry: Could you check which of 1 and 2 has a smaller value for Emax? When you have decided, please share the label of that item.
Return: 2

I. Cn1nc(C2CCC(=O)NC2=O)c2ccc(C3CCN(CC(=O)N4CCC5(CC4)C[C@@H](n4cnc6ccc(Oc7c(F)ccc(NS(=O)(=O)C8CCCC8)c7C#N)cc6c4=O)CO5)CC3)cc21 (stereo partly shown)
II. CCN(C)S(=O)(=O)Nc1ccc(F)c(Oc2ccc3ncn(C4COC5(CCN(C(=O)CN6CCC(c7ccc8c(N9CCC(=O)NC9=O)nn(C)c8c7)CC6)CC5)C4)c(=O)c3c2)c1C#N (stereo not shown)
Enquiry: Returns: the argument ( I or II ) having the larger Emax. When you have decided, please share the label of that item.
Return: I
(I: 16.5%, II: 8.7%)

* * *

# target-or-system: BRAF V600E (Homo sapiens, UniProt P15056, V600E)
# test-summary: HiBiT cellular BRAF^V600E degradation assay
# Format: cell-based
# recorded-conditions: A375.10 cells, 24 h; residual protein remaining in the cell; read-out: HiBit 24 h Emax
reported-metric: Emax (%)

Recorded Emax, per entry:
compound=CCN(C)S(=O)(=O)Nc1ccc(F)c(Oc2ccc3ncn(C4CCC5(CC4)CCN(C(=O)CN4CCC(c6ccc7c(N8CCC(=O)NC8=O)nn(C)c7c6)CC4)CC5)c(=O)c3c2)c1C#N target_or_system="BRAF V600E (Homo sapiens, UniProt P15056, V600E)" reported_metric=Emax meas_value=9.75
compound=N#Cc1c(NS(=O)(=O)C2CCC2)ccc(F)c1Oc1ccc2ncn(-c3cnc(N4CCN(C(=O)CN5CCC(c6ccc(N[C@H]7CCC(=O)NC7=O)cc6F)CC5)CC4)nc3)c(=O)c2c1 target_or_system="BRAF V600E (Homo sapiens, UniProt P15056, V600E)" reported_metric=Emax meas_value=11.1
compound="CCN(C)S(=O)(=O)Nc1ccc(F)c(Oc2ccc3ncn([C@H]4COC5(CCN(C(=O)CC6(O)CCN(c7ccc8c(C9CCC(=O)NC9=O)nn(C)c8c7)CC6)CC5)C4)c(=O)c3c2)c1C#N (some centres unmarked)" target_or_system="BRAF V600E (Homo sapiens, UniProt P15056, V600E)" reported_metric=Emax meas_value=25.2

I. CCN(C)S(=O)(=O)Nc1ccc(F)c(Oc2ccc3ncn(C4CC5(CCN(C(=O)CC6(O)CCN(c7ccc(NC8CCC(=O)NC8=O)cc7F)CC6)CC5)C4)c(=O)c3c2)c1C#N (centres unmarked)
II. CCN(C)S(=O)(=O)Nc1ccc(F)c(Oc2ccc3ncn(C4COC5(CCN(C(=O)CN6CCC(c7ccc(NC8CCC(=O)NC8=O)cc7F)CC6)CC5)C4)c(=O)c3c2N)c1C#N (centres unmarked)
Enquiry: Returns: the argument ( I or II ) having the larger Emax. When you have decided, please share the label of that item.
Return: I
(I: 21.7%, II: 12.2%)

* * *

# target-or-system: BRAF V600E (Homo sapiens, UniProt P15056, V600E)
# test-summary: HiBiT cellular BRAF^V600E degradation assay
# Format: cell-based
# recorded-conditions: A375.10 cells, 24 h; concentration at which 50% of total cellular BRAF^V600E is degraded
reported-metric: DC50 (nM)

Recorded DC50, per entry:
molecule="CCN(C)S(=O)(=O)Nc1ccc(F)c(Oc2ccc3ncn([C@H]4CCC5(CCN(C(=O)CN6CCC(c7ccc8c(N9CCC(=O)NC9=O)nn(C)c8c7)CC6)CC5)C4)c(=O)c3c2)c1C#N [Example 154]" reported_metric=DC50 meas_value=24.6
molecule="N#Cc1c(NS(=O)(=O)N2CCC2)ccc(F)c1Oc1ccc2ncn(-c3cnc(N4CCN(C(=O)CN5CCC(c6ccc(N[C@@H]7CCC(=O)NC7=O)cc6F)CC5)CC4)nc3)c(=O)c2c1 [Example 125]" reported_metric=DC50 meas_value=15.7
molecule="CCN(C)S(=O)(=O)Nc1ccc(F)c(Oc2ccc3ncc([C@@H]4COC5(CCN(C(=O)CN6CCC(c7ccc(NC8CCC(=O)NC8=O)cc7F)CC6)CC5)C4)nc3c2)c1C#N (stereo partly drawn) [Example 223]" reported_metric=DC50 meas_value=29.6

P. N#Cc1c(NS(=O)(=O)N2C[C@@H](F)[C@H](F)C2)ccc(F)c1Oc1ccc2ncn(-c3cnc(N4CCN(C(=O)CN5CCC(c6ccc(N[C@H]7CCC(=O)NC7=O)cc6F)CC5)CC4)nc3)c(=O)c2c1 [Example 129]
Q. N#Cc1c(NS(=O)(=O)C2CC2)ccc(F)c1Oc1ccc2ncn(-c3cnc(N4CCN(C(=O)CN5CCC(c6ccc(N[C@@H]7CCC(=O)NC7=O)cc6F)CC5)CC4)nc3)c(=O)c2c1 [Example 115]
Enquiry: Could you check which of P and Q has a smaller value for DC50? When you have decided, please share the label of that item.
Return: Q
(Q: 16.1 nM, P: 29.6 nM)

* * *

# target-or-system: BRAF V600E (Homo sapiens, UniProt P15056, V600E)
# test-summary: HiBiT cellular BRAF^V600E degradation assay
# Assay type: cell-based
# recorded-conditions: A375.10 cells, 24 h; residual protein remaining in the cell; read-out: HiBit 24 h Emax
reported-metric: Emax (%)

Recorded Emax, per entry:
compound="CCN(C)S(=O)(=O)Nc1ccc(F)c(Oc2ccc3ncn(-c4cnc(N5CCN(C(=O)CN6CCC(c7ccc(NC8CCC(=O)NC8=O)cc7F)CC6)CC5)nc4)c(=O)c3c2F)c1C#N (stereo not shown)" units_label=% meas_value=12.9
compound="CCN(C)S(=O)(=O)Nc1ccc(F)c(Oc2ccc3ncn(CCC4(F)CCN(C(=O)CN5CCC(c6ccc(NC7CCC(=O)NC7=O)cc6F)CC5)CC4)c(=O)c3c2)c1C#N (stereo not shown)" units_label=% meas_value=8.27
compound="CCN(C)S(=O)(=O)Nc1ccc(F)c(Oc2ccc3ncn(CCCC4CCN(C(=O)CN5CCC(c6ccc(NC7CCC(=O)NC7=O)cc6)CC5)CC4)c(=O)c3c2)c1C#N (stereo not shown)" units_label=% meas_value=10.8

a. CN(CCF)S(=O)(=O)Nc1ccc(F)c(Oc2ccc3ncn(-c4cnc(N5CCN(C(=O)CN6CCC(c7ccc(N[C@@H]8CCC(=O)NC8=O)cc7F)CC6)CC5)nc4)c(=O)c3c2)c1C#N
b. CCN(C)S(=O)(=O)Nc1ccc(F)c(Nc2ccc3ncn([C@H]4COC5(CCN(C(=O)CN6CCC(c7ccc(NC8CCC(=O)NC8=O)cc7F)CC6)CC5)C4)c(=O)c3c2)c1C#N (single isomer, unassigned)
c. COC1CN(S(=O)(=O)Nc2ccc(F)c(Oc3ccc4ncn([C@H]5COC6(CCN(C(=O)CC7(O)CCN(c8cc9c(cc8F)c(N8CCC(=O)NC8=O)nn9C)CC7)CC6)C5)c(=O)c4c3)c2C#N)C1
Enquiry: # rank by Emax, ascending (min first) Would you mind listing the labels in the order requested?
Return: b, a, c
(b: 6.45%, a: 11.6%, c: 33.8%)

A. CCN(C)S(=O)(=O)Nc1ccc(F)c(Oc2ccc3ncn([C@H]4CCC5(CCN(C(=O)CN6CCC(c7ccc(C8CCC(=O)NC8=O)cc7F)C(F)(F)C6)CC5)C4)c(=O)c3c2)c1C#N (stereo partly shown)
B. CCN(C)S(=O)(=O)Nc1ccc(F)c(Oc2ccc3ncn([C@H]4CCC5(CCN(C(=O)CN6CCC(c7ccc(NC8CCC(=O)NC8=O)cc7F)CC6)CC5)C4)c(=O)c3c2)c1C#N (single isomer, unassigned)
Enquiry: Returns: the argument ( A or B ) having the larger Emax. When you have decided, please share the label of that item.
Return: A

* * *

# target-or-system: BRAF V600E (Homo sapiens, UniProt P15056, V600E)
# test-summary: HiBiT cellular BRAF^V600E degradation assay
# Assay type: cell-based
# recorded-conditions: A375.10 cells, 24 h; concentration at which 50% of total cellular BRAF^V600E is degraded
reported-metric: DC50 (nM)

I. CCN(C)S(=O)(=O)Nc1ccc(F)c(Oc2ccc3ncn(CCCC4CCN(C(=O)CN5CCC(c6ccc(NC7CCC(=O)NC7=O)cc6)CC5)CC4)c(=O)c3c2)c1C#N (stereo not shown) [Example 4]
II. CCN(C)S(=O)(=O)Nc1ccc(F)c(Oc2ccc3ncn(CCCC4CCN(C(=O)CN5CCC(c6ccc(C7CCC(=O)NC7=O)cc6F)CC5)CC4)c(=O)c3c2)c1C#N (stereo not shown) [Example 5]
III. N#Cc1c(NS(=O)(=O)C2CCCC2)ccc(F)c1Oc1ccc2ncn(-c3cnc(N4CCN(C(=O)CN5CCC(c6ccc(N[C@H]7CCC(=O)NC7=O)cc6F)CC5)CC4)nc3)c(=O)c2c1 [Example 109]
Enquiry: Task for the reader: rank each entry by its DC50, from the minimum upward. Would you mind listing the labels in the order requested?
Return: III, I, II
